Recorded measurements of IC50, one per entry
Molecular target: UniProtKB P18130
Sequence (P18130 whole entry): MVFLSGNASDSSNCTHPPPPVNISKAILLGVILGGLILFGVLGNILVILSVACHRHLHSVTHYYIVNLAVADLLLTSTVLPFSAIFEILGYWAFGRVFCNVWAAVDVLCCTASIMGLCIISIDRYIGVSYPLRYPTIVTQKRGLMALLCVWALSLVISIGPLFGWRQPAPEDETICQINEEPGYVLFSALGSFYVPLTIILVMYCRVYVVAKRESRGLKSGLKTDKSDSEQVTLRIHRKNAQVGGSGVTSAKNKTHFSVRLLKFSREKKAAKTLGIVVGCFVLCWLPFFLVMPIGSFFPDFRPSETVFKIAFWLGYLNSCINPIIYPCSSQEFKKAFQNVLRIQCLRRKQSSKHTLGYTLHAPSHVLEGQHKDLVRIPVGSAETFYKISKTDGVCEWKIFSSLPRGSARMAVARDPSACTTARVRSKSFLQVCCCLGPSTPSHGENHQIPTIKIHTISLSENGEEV
Reported property: IC50 (µM)

• CCCN(CCC)C1CCc2cccc(O)c2C1 (centres undefined) = 30
• CCCN(CCC)C1COc2cccc(OC)c2C1 (stereo in doubt; 4) = 80
• O=C1CC2(CCCC2)CC(=O)N1CCCCN1CCN(c2ncccn2)CC1 = 16
